Assay: Pharmacokinetic study of long acting preparation in Beagle dogs
Assay type: in vivo, Beagle dog
Conditions: dog, plasma, im, 24.3 mg/kg, Table 7, Dog 2, Dose 24.3 mg/kg; read-out: t1/2,α (converted)
PROPERTY LABEL: half-life (min)
Write it as a number; the unit min goes unstated.

Lab note: `O=C(CCCCCCCCC(=O)Oc1ccc2c3c1O[C@H]1[C@@H](O)CC[C@@]4(O)[C@@H](C2)N(CC2CCC2)CC[C@]314)Oc1ccc2c3c1O[C@H]1[C@@H](O)CC[C@@]4(O)[C@@H](C2)N(CC2CCC2)CC[C@]314` gave half-life of 6

---

Assay: Pharmacokinetic study of long acting preparation in Beagle dogs
Assay type: in vivo, Beagle dog
Settings: dog, plasma, im, 81 mg/kg, Table 7, Dog 2, Dose 81.0 mg/kg; read-out: MRT
PROPERTY LABEL: MRT (h)
Write it as a number; the unit h goes unstated.

Lab note: O=C(CCCCCCCCC(=O)Oc1ccc2c3c1O[C@H]1[C@@H](O)CC[C@@]4(O)[C@@H](C2)N(CC2CCC2)CC[C@]314)Oc1ccc2c3c1O[C@H]1[C@@H](O)CC[C@@]4(O)[C@@H](C2)N(CC2CCC2)CC[C@]314 [sebacoyl dinalbuphine ester] gave MRT of 127

---

Assay: Pharmacokinetic study of long acting preparation in Beagle dogs
Assay type: in vivo, Beagle dog
Settings: dog, plasma, im, 81 mg/kg, Table 7, Dog 2, Dose 81.0 mg/kg; read-out: Cmax
PROPERTY LABEL: Cmax (ng/mL)
Write it as a number; the unit ng/mL goes unstated.

Lab note: `O=C(CCCCCCCCC(=O)Oc1ccc2c3c1O[C@H]1[C@@H](O)CC[C@@]4(O)[C@@H](C2)N(CC2CCC2)CC[C@]314)Oc1ccc2c3c1O[C@H]1[C@@H](O)CC[C@@]4(O)[C@@H](C2)N(CC2CCC2)CC[C@]314` gave Cmax of 204

---

Assay: Pharmacokinetic study of long acting preparation in Beagle dogs
Assay type: in vivo, Beagle dog
Conditions: dog, plasma, im, 24.3 mg/kg, Table 7, Dog 2, Dose 24.3 mg/kg; read-out: t1/2,β (converted)
PROPERTY LABEL: half-life (min)
Write it as a number; the unit min goes unstated.

Lab note: `O=C(CCCCCCCCC(=O)Oc1ccc2c3c1O[C@H]1[C@@H](O)CC[C@@]4(O)[C@@H](C2)N(CC2CCC2)CC[C@]314)Oc1ccc2c3c1O[C@H]1[C@@H](O)CC[C@@]4(O)[C@@H](C2)N(CC2CCC2)CC[C@]314` gave half-life of 1840

---

Test: Pharmacokinetic study of long acting preparation in Beagle dogs
Type: in vivo, Beagle dog
Conditions: dog, plasma, im, 30 mg/kg, Mean of 5 dogs; 30 mg/kg i.m.; read-out: CLt (converted)
PROPERTY LABEL: CL/F (mL/h/kg)
Write it as a number; the unit mL/h/kg goes unstated.

Lab note: `O=C(CCCCCCCCC(=O)Oc1ccc2c3c1O[C@H]1[C@@H](O)CC[C@@]4(O)[C@@H](C2)N(CC2CCC2)CC[C@]314)Oc1ccc2c3c1O[C@H]1[C@@H](O)CC[C@@]4(O)[C@@H](C2)N(CC2CCC2)CC[C@]314` gave CL/F of 1.22

---

Test: Pharmacokinetic study of long acting preparation in Beagle dogs
Format: in vivo, Beagle dog
Conditions: dog, plasma, im, 30 mg/kg, Mean of 5 dogs; 30 mg/kg i.m.; read-out: t1/2,α (converted)
Procedure: Six Beagle dogs were used. […] Relationship between time and concentration was analyzed by PCNONLIN computer program. Two compartment model and pharmacokinetic parameters were calculated to depicted absorption, distribution, metabolism, and excretion of drugs in dogs.
PROPERTY LABEL: half-life (min)
Write it as a number; the unit min goes unstated.

Lab note: `O=C(CCCCCCCCC(=O)Oc1ccc2c3c1O[C@H]1[C@@H](O)CC[C@@]4(O)[C@@H](C2)N(CC2CCC2)CC[C@]314)Oc1ccc2c3c1O[C@H]1[C@@H](O)CC[C@@]4(O)[C@@H](C2)N(CC2CCC2)CC[C@]314` gave half-life of 5.4
